# maps each entry to its IC50
System: bladder cancer cell lines
protocol notes: Cell based assay, cell viability (CellTiter-Glo), bladder cancer cell lines
test conditions: 5637 cells; 72 hours treatment; 0 to 2 μM; CellTiter-Glo; read-out: IC50, bladder cancer cell line 5637

*Q* Provide one value: measured IC50 of CC(=O)c1c([S+](C)[O-])n(S(=O)(=O)C(F)(F)F)c2c(Br)ccc(Cl)c2c1=O (stereo not shown)
*A* > 2000 nM

*Q* Determine from records and report IC50 for CC(=O)c1c([S+](C)[O-])n(S(=O)(=O)c2ccc(C(C)(C)C)cc2)c2c(Br)ccc(Cl)c2c1=O (stereo not shown)
*A* > 2000 nM

*Q* For the compound CC(=O)c1c([S+]([O-])Cc2ccc(C(F)(F)F)cc2)[nH]c2c(Br)ccc(Cl)c2c1=O (stereo not shown) , give its reported IC50.
*A* 1730 nM

*Q* Specify IC50 for CC(=O)c1c(SCc2ccccc2)n(C(=O)c2ccc(Br)cc2)c2c(Br)ccc(Cl)c2c1=O and stop.
*A* > 2000 nM

*Q* Write down IC50 measured for item CC(=O)c1c([S+]([O-])Cc2cccc(F)c2)[nH]c2c(Br)ccc(Cl)c2c1=O (stereo not shown)
*A* 1470 nM

*Q* Quote IC50 reported for CC(=O)c1c([S+](C)[O-])[nH]c2c(Br)ccc(Cl)c2c1=O (stereo not shown) please.
*A* 1670 nM

*Q* In one line, give reported IC50 of the entry CC(=O)c1c([S+]([O-])Cc2ccc(S(F)(F)(F)(F)F)cc2F)[nH]c2c(Br)ccc(Cl)c2c1=O (stereo not shown) .
*A* 1620 nM

*Q* Give the reported value of IC50 for this record: CC(=O)c1c([S+]([O-])Cc2ccc(Cl)cc2)[nH]c2c(Br)ccc(Cl)c2c1=O (stereo not shown)
*A* > 2000 nM

*Q* Read the entry CC(=O)c1c([S+]([O-])Cc2ccc(C(F)(F)F)o2)[nH]c2c(F)ccc(F)c2c1=O (stereo not shown) and write its reported IC50.
*A* > 2000 nM

*Q* Give recorded IC50. CC(=O)c1c([S+]([O-])Cc2ccc([S+]([O-])C(F)(F)F)cc2)[nH]c2c(Br)ccc(Cl)c2c1=O (stereo not shown)
*A* 1520 nM

*Q* Please list IC50 recorded for the compound CC(=O)c1c([S+]([O-])Cc2cc(F)cc(S(F)(F)(F)(F)F)c2)[nH]c2c(Br)ccc(Cl)c2c1=O (stereo not shown)
*A* > 2000 nM

*Q* Output IC50 of CC(=O)c1c(SCc2ccc(F)c(Cl)c2)[nH]c2c(Br)ccc(Cl)c2c1=O
*A* > 2000 nM

*Q* Let me know recorded IC50 for CC(=O)c1c(SCc2cc(Cl)ccc2Cl)[nH]c2c(Br)ccc(Cl)c2c1=O , thanks.
*A* > 2000 nM

Numbers sourced from patent US11464770B2.
